Recorded values, source patent EP2366702A1.

Exercise: state measured EC50 for each of the compounds provided.
- ASSAY_TARGET: S1P1 (Homo sapiens, UniProt P21453)
- Sequence (P21453 whole entry, species assumed): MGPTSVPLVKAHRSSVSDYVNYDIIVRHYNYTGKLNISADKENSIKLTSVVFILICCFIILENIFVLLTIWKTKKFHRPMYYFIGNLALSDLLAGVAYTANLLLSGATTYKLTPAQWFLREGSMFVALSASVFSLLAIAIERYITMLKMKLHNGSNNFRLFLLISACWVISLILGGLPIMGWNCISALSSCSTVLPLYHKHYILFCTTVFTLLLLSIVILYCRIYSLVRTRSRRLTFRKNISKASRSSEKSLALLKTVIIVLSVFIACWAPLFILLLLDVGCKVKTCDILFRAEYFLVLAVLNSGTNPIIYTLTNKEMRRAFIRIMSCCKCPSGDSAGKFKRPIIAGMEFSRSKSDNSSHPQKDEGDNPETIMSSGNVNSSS
- PROTOCOL_SUMMARY: 35S-GTPyS binding assay
- TEST_CONTEXT: membranes; 10µM S1P used as 100% maximum efficacy; 90 min at room temperature
Give bare numbers, in µM.

Below are worked cases with known answers.
Cc1cc(-c2noc(-c3nn(C)c4c3CCC(C)(C)C4)n2)cc(C)c1CCn1cc(C(=O)O)cn1
0.00637
Cc1cc(-c2noc(-c3nn(C)c4c3CCC(C)(C)C4)n2)cc(C)c1CCNCCn1cncn1
0.0192
Cc1cc(-c2noc(-c3nn(C)c4c3CCC(C)(C)C4)n2)cc(C)c1CCNC(=O)CN
0.00199
Cc1cc(-c2noc(-c3nn(C)c4c3CCC(C)(C)C4)n2)cc(C)c1CCC(C)(C)O
0.0375
Cc1cc(-c2noc(-c3nn(C)c4c3CCC(C)(C)C4)n2)cc(C)c1CCn1nccc1C(=O)O
0.0103
Cc1cc(-c2noc(-c3nn(C)c4c3CCC(C)(C)C4)n2)cc(C)c1CCP(=O)(O)O
0.00308

**Q:** Form field: reported EC50 of "Cc1cc(-c2noc(-c3nn(C)c4c3CCC(C)(C)C4)n2)cc(C)c1CCn1cncn1"
**A:** 0.0121
